assay.remarks: self-splicing fitness, log relative to wild type (ln ratio); higher = more splicing; Tetrahymena group I intron in knt gene, E. coli kanamycin selection, DiMSum; sequences stand for … in CUCUCU…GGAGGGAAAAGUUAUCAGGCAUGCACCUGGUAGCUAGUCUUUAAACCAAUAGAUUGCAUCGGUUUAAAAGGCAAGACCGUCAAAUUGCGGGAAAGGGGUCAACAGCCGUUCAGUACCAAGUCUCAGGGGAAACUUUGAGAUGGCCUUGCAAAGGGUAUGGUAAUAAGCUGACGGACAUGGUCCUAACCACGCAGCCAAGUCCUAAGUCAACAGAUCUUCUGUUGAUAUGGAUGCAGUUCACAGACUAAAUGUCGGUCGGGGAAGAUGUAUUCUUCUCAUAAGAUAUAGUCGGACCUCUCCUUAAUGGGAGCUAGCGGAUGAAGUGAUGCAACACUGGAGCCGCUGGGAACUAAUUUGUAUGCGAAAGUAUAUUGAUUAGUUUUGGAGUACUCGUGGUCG;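 further: selection with 25 µg/mL kanamycin versus none on LB agar overnight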
conditions.used: 37 °C
Hi, to clarify the labels: met covers self-splicing fitness (ln) from -0.5 upward, not met covers anything below -0.5.

>>> class_label("CUACAGCAAUAUUACGUAUC")
"not met"
>>> class_label("GGCUAGCAAUAUUACGAGGU")
"not met"
>>> class_label("ACUUAGCAAUAUUACGGUAA")
"not met"
>>> class_label("GUGCAGCAAUAUUACGAACU")
"met"
>>> class_label("AGUUAGCAAUAUUACGAUGU")
"met"
>>> class_label("AGUUAGCAAUAUUACGGCUA")
"met"
>>> class_label("AGAUAGCAAUAUUACGGGCC")
"not met"
>>> class_label("ACCAAGCAAUAUUACGCCUU")
"not met"
>>> class_label("ACAAAGCAAUAUUACGACAU")
"met"
>>> class_label("GAGGAGCAAUAUUACGGGCU")
"not met"
>>> class_label("GAUGAGCAAUAUUACGCUCU")
"not met"
>>> class_label("ACCAAGCAAUAUUACGCACC")
"met"
>>> class_label("GUAAAGCAAUAUUACGAUUA")
"met"
>>> class_label("UUUUAGCAAUAUUACGCAUC")
"not met"
>>> class_label("CUAAAGCAAUAUUACGUCAU")
"not met"
>>> class_label("GUCUAGCAAUAUUACGGCGU")
"met"
>>> class_label("GUUUAGCAAUAUUACGCCUC")
"not met"
>>> class_label("AUAUAGCAAUAUUACGCGCU")
"not met"
>>> class_label("AUCUAGCAAUAUUACGAUGG")
"not met"
>>> class_label("AUCUAGCAAUAUUACGGGAU")
"not met"
>>> class_label("AGAAAGCAAUAUUACGUUUA")
"not met"
>>> class_label("ACCUAGCAAUAUUACGGCUC")
"met"
>>> class_label("CUGUAGCAAUAUUACGCUAC")
"not met"
>>> class_label("GGAUAGCAAUAUUACGGUAC")
"met"
>>> class_label("UGAUAGCAAUAUUACGGCAU")
"not met"
>>> class_label("GCUCAGCAAUAUUACGCUUC")
"met"
>>> class_label("CACGAGCAAUAUUACGAGCC")
"not met"
>>> class_label("UGUAAGCAAUAUUACGGCGU")
"met"
>>> class_label("ACCGAGCAAUAUUACGCCAG")
"not met"
>>> class_label("ACUUAGCAAUAUUACGGCGU")
"met"
>>> class_label("UAAUAGCAAUAUUACGGUUA")
"not met"
>>> class_label("CAUAAGCAAUAUUACGCCGG")
"not met"
>>> class_label("AGACAGCAAUAUUACGAAAA")
"not met"

###

self-splicing fitness (ln) by entry:
assay.remarks: self-splicing fitness, log relative to wild type (ln ratio); higher = more splicing; Tetrahymena group I intron in knt gene, E. coli kanamycin selection, DiMSum; sequences stand for … in CUCUCU…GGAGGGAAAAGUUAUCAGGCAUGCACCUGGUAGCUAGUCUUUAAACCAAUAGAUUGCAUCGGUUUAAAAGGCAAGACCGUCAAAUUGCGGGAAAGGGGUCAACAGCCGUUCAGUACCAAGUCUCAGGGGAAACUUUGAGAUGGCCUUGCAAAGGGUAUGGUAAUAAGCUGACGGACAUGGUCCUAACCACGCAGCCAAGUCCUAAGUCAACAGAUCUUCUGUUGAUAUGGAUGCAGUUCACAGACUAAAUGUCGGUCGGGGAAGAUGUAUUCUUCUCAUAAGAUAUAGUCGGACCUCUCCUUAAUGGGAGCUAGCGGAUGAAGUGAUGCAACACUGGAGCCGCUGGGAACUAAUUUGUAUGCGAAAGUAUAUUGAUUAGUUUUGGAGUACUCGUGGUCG
conditions.used: 30 °C
quantity.name: self-splicing fitness (ln)

>>> data_value("ACCUAGCAAUAUUACGUGGA")
-2.36
>>> data_value("AAGUAGCAAUAUUACGCUAG")
-1.57
>>> data_value("ACGAAGCAAUAUUACGAUCC")
-1.12
>>> data_value("GACUAGCAAUAUUACGUAGA")
-0.815
>>> data_value("UGGUAGCAAUAUUACGACGG")
-1.49
>>> data_value("GAUAAGCAAUAUUACGUCGA")
-1.54
>>> data_value("UCUAAGCAAUAUUACGGUCG")
-1.34
>>> data_value("UAGGAGCAAUAUUACGCGUG")
-2.31
>>> data_value("UUUCAGCAAUAUUACGCCUU")
-1.58
>>> data_value("UAUUAGCAAUAUUACGUGCA")
-0.96
>>> data_value("ACUCAGCAAUAUUACGAGUA")
-2.23
>>> data_value("AACAAGCAAUAUUACGCAAC")
-3.89
>>> data_value("AGUCAGCAAUAUUACGCAUU")
-0.401
>>> data_value("CUCCAGCAAUAUUACGCAAA")
-3.21
>>> data_value("UGGCAGCAAUAUUACGUCGU")
-2.65
>>> data_value("UUGCAGCAAUAUUACGAAGU")
-2.38

###

assay.remarks: self-splicing fitness, log relative to wild type (ln ratio); higher = more splicing; Tetrahymena group I intron in knt gene, E. coli kanamycin selection, DiMSum; sequences stand for … in CUCUCU…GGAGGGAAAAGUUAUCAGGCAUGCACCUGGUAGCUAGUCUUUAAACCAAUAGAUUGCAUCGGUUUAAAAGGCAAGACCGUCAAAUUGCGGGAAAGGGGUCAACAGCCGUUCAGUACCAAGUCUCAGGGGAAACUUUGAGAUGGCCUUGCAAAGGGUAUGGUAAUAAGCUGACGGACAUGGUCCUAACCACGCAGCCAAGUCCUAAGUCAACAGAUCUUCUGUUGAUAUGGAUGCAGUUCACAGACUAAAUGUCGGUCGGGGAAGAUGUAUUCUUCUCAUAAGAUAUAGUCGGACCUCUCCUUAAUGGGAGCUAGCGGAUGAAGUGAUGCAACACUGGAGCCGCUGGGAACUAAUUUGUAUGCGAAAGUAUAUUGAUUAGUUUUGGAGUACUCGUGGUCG
conditions.used: 37 °C
Binning of self-splicing fitness (ln) into classes: low = under -2, medium = from -2 up to -1, high = -1 and over

>>> class_label("GUCGAGCAAUAUUACGGCGA")
"medium"
>>> class_label("GCGGAGCAAUAUUACGGCCU")
"high"
>>> class_label("CCUGAGCAAUAUUACGUGGU")
"low"
>>> class_label("UAACAGCAAUAUUACGCCCU")
"high"
>>> class_label("AGGCAGCAAUAUUACGGCUU")
"medium"
>>> class_label("CAGUAGCAAUAUUACGUGCU")
"medium"
>>> class_label("CUGGAGCAAUAUUACGAUGG")
"medium"
>>> class_label("CUCGAGCAAUAUUACGUUGC")
"low"
>>> class_label("CCGUAGCAAUAUUACGUCUC")
"low"
>>> class_label("AUUCAGCAAUAUUACGUAGG")
"high"
>>> class_label("GGCAAGCAAUAUUACGACAG")
"low"
>>> class_label("UAUGAGCAAUAUUACGAGCG")
"medium"
>>> class_label("UCUCAGCAAUAUUACGACGA")
"high"
>>> class_label("GACCAGCAAUAUUACGGUAC")
"medium"
>>> class_label("GCUGAGCAAUAUUACGUGGU")
"low"
>>> class_label("GGCAAGCAAUAUUACGUGAC")
"high"

###

self-splicing fitness (ln) by entry:
assay.remarks: self-splicing fitness, log relative to wild type (ln ratio); higher = more splicing; Tetrahymena group I intron in knt gene, E. coli kanamycin selection, DiMSum; sequences stand for … in CUCUCU…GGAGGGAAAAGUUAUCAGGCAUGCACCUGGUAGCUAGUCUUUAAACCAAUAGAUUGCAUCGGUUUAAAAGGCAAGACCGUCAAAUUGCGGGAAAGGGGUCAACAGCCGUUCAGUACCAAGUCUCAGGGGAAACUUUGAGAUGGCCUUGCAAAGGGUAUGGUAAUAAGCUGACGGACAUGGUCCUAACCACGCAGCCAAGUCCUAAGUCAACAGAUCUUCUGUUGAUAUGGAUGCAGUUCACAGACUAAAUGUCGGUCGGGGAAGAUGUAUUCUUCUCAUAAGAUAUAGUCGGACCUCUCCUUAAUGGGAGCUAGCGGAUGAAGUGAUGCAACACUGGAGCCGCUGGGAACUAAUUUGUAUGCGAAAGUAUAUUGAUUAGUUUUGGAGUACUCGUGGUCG
conditions.used: 37 °C
quantity.name: self-splicing fitness (ln)

>>> data_value("CGAAAGCAAUAUUACGCAGG")
-1.4
>>> data_value("GGUUAGCAAUAUUACGGAUC")
0.131
>>> data_value("UAAGAGCAAUAUUACGUGCC")
-3.48
>>> data_value("AUCUAGCAAUAUUACGGUAC")
-2.44
>>> data_value("CUACAGCAAUAUUACGCAGA")
-3.07
>>> data_value("GUGCAGCAAUAUUACGGCGG")
-1.1
>>> data_value("ACUCAGCAAUAUUACGCCAU")
-2.28
>>> data_value("GGGAAGCAAUAUUACGGCUA")
0.0151
>>> data_value("GUUCAGCAAUAUUACGAUGU")
0.31
>>> data_value("CAGGAGCAAUAUUACGGGUU")
-2.99
>>> data_value("GAUGAGCAAUAUUACGACAC")
-0.309
>>> data_value("CGUAAGCAAUAUUACGGACA")
-1.18
>>> data_value("AGGGAGCAAUAUUACGGCGC")
-1.23
>>> data_value("GAACAGCAAUAUUACGCAGA")
-1.66
>>> data_value("AAGCAGCAAUAUUACGUGAA")
-1.05
>>> data_value("UGUAAGCAAUAUUACGCAAC")
-1.79
